src = ChEMBL document CHEMBL1201862

test system: HCT-116; experiment: NCI tumour cell line growth inhibition, 48 h
Activity calls are given as the source filed them. Cut-off read from the data, not from the text of the source: active = GI50 up to about 1.1 µM and inactive = higher.
Observable: GI50

Example compounds with recorded GI50:
[[record]]
compound = "Cn1nc(-c2ccccc2)c(C(=O)/C=C/c2ccc(F)cc2)c(N2CCCC2)c1=O"
observable = "GI50"
result = "6.5 µM (inactive)"

[[record]]
compound = "CCOC(=O)C1=c2[nH]c3cccc4cccc(c43)n2C(=O)CC1c1ccccc1 (stereo unspecified)"
observable = "GI50"
result = "> 100 µM (inactive)"

[[record]]
compound = "Oc1ccc(Nc2nc(Cl)c3nc[nH]c3n2)cc1"
observable = "GI50"
result = "> 100 µM (inactive)"

[[record]]
compound = "COc1ccc2cc(NC(=O)N/N=C\\c3ccc(Cl)cc3)ccc2c1"
observable = "GI50"
result = "> 100 µM (inactive)"

[[record]]
compound = "Cc1ccc(C(=O)Nc2ccc(S(=O)(=O)O)c3cc(S(=O)(=O)O)cc(S(=O)(=O)O)c23)cc1N"
observable = "GI50"
result = "> 100 µM (inactive)"


Look up GI50 for the entries below, preserving their order.
1. COc1ccc(C)cc1Nc1nnc(-c2ccc(N)cc2)s1
2. Cc1nc2c(o1)C(=O)c1ccccc1/C2=N/c1ccccn1
3. O=C(Cn1c2ccc(Br)cc2c2nc3ccccc3nc21)NCc1ccccc1
4. CC1(C)CC(=O)c2c(nc(SSc3nc4c(c(-c5ccccc5)c3C#N)C(=O)CC(C)(C)C4)c(C#N)c2-c2ccccc2)C1
5. O=C(/C=C/c1ccccc1F)c1ccc(Cl)c(Cl)c1

A)
["49.4 µM (inactive)", "20.4 µM (inactive)", "94.6 µM (inactive)", "> 10 µM (inactive)", "16.3 µM (inactive)"]

Look up GI50 for the entries below, preserving their order.
1. Nc1ccc(-c2nc3ccccc3s2)cc1CO
2. Nc1nnc2ccc(Cl)cc2[n+]1[O-]
3. COc1cc(C2c3cc4c(cc3[C@@H](Nc3ccc([N+](=O)[O-])cc3)C3COC(=O)[C@H]23)OCO4)cc(OC)c1O (stereo partly specified)
4. COC(=O)/C=C/[C@H]1[C@H](C)N1S(=O)(=O)c1ccc(C)cc1 (stereo partly specified)
5. Cc1c2cc[n+](C)cc2c(C)c2c1[nH]c1ccc(OC(C)C)cc12
6. C=C[C@@H]1C(CO)=CCC2[C@H]1CCC1C(C)(C)C(=O)CC[C@]21C (stereo partly specified)
7. NC(=O)CC1(O)C=CC(=O)C=C1
8. CCOC(=O)C(OP(=O)(OCC)OCC)C(F)(F)F (stereo unspecified)

A)
74.6 µM (inactive)
39.7 µM (inactive)
2.27 µM (inactive)
41.8 µM (inactive)
2.91 µM (inactive)
> 100 µM (inactive)
> 100 µM (inactive)
> 100 µM (inactive)

Look up GI50 for the entries below, preserving their order.
1. COC(=O)[C@H]1C=C[C@H](OC2OC(COC(C)=O)C(OC(C)=O)C(OC(C)=O)C2OC(C)=O)n2c(=O)n(-c3ccccc3)c(=O)n21 (stereo partly specified)
2. COc1cccc(Nc2nc(N)nc(N)c2N)c1
3. O=C(NC(Nc1ccc(F)c(Cl)c1)(C(F)(F)F)C(F)(F)F)OCc1ccccc1

A)
["2.96 µM (inactive)", "22.2 µM (inactive)", "47.5 µM (inactive)"]

---

tested on: RXF 393; assay: NCI tumour cell line growth inhibition, 48 h
The source made the active and inactive calls. Cut-off read from the data, not from the text of the source: active = GI50 up to about 1.1 µM and inactive = higher.
Use one of these outcomes when replying: Y (active), N (inactive)

Worked examples, 6 compounds total:
[[record]]
compound = "CCCCOC(=O)C1CC[C@H]2[C@@H]3CCc4cc(OC(=O)c5cccc6c(=O)c7ccccc7[nH]c56)ccc4[C@H]3CC[C@]12C (some centres undefined)"
label_value = "N"

[[record]]
compound = "CC#CC(O)(C(=O)OC1CCCN(C)C1)C1=CC=CCC1 (centres undefined)"
label_value = "N"

[[record]]
compound = "COC(=O)/C=C/[C@H]1[C@H](C)N1S(=O)(=O)c1ccc(C)cc1 (some centres undefined)"
label_value = "N"

[[record]]
compound = "COC(=O)C1C(O)CCC2CN3CCc4c([nH]c5cccc(OC)c45)C3CC21 (centres undefined)"
label_value = "N"

[[record]]
compound = "CCN(CC)C(=S)N/N=C(\\C)c1ccccc1O"
label_value = "N"

[[record]]
compound = "O=C1/C(=C\\c2ccccc2)C(NC2CCCCC2)c2ccccc21 (centres undefined)"
label_value = "N"


Q) Please indicate how the test categorized "CCOC(=O)c1c2cccccc2n2c(=O)cc(C)nc12" .
A) N

Q) Please indicate how the test categorized "O=C(N/N=C\c1ccc([N+](=O)[O-])cc1)c1ccccc1Nc1ccccc1C(=O)N/N=C/c1ccc([N+](=O)[O-])cc1" .
A) N

Q) Please indicate how the test categorized CC(=O)O[C@@H]1[C@@H](C)[C@]2(CC(c3ccoc3)OC2O)C2CCC3O[C@]3(C)[C@]2(C)[C@@H]1OC(C)=O (some centres undefined) .
A) N

Q) Please indicate how the test categorized "CC(C)=CCC[C@@H](C)C1=C(O)C(=O)C(C)=C(N[C@H](C)c2ccccc2)C1=O" .
A) N

Q) Please indicate how the test categorized O/N=C1/Nc2ccccc2C(=S)N2CSCC12 (centres undefined) .
A) N

Q) Please indicate how the test categorized "N#Cc1nc(/C=C/c2nc(C#N)c(N)o2)oc1N" .
A) N

---

tested on: ACHN; assay: NCI tumour cell line growth inhibition, 48 h
Calls of active or inactive are those of the source. Cut-off read from the data, not from the text of the source: active = GI50 up to about 1.1 µM and inactive = higher.
Use one of these outcomes when replying: yes (1) = active, no (0) = inactive

Worked examples, 10 molecules total:
[[record]]
molecule = "COc1ccccc1NC(=O)C1=C(C)NC(C)=C(C(=O)Nc2ccccc2OC)C1/C=C/c1ccccc1"
label_value = "no (0)"

[[record]]
molecule = "N=C(N)SCCCN"
label_value = "no (0)"

[[record]]
molecule = "COC(=O)n1c(C)c(C=O)c2ccc(OC)cc21"
label_value = "no (0)"

[[record]]
molecule = "CC(NC1=NCCO1)c1ccsc1 (configuration not stated)"
label_value = "no (0)"

[[record]]
molecule = "COc1c(C)c(C/C=C(\\C)CCCCO)c(OC)c2ccccc12"
label_value = "no (0)"

[[record]]
molecule = "CC(C)OC(=O)c1ccc(NCC2=CC(=O)C=CC2=O)cc1"
label_value = "no (0)"

[[record]]
molecule = "CCN(CC)CCNc1ccc2nc(C)n3c4ccc(OC)cc4c(=O)c1c23"
label_value = "yes (1)"

[[record]]
molecule = "Brc1ccccc1-c1ncc(-c2ccccc2)o1"
label_value = "no (0)"

[[record]]
molecule = "COC(=O)/C=C/[C@H]1[C@H](C)N1S(=O)(=O)c1ccc(C)cc1 (some centres not stated)"
label_value = "no (0)"

[[record]]
molecule = "Oc1cn(-c2ccc(Cl)cc2)nc1-c1nnc(Nc2ccccc2)o1"
label_value = "no (0)"


Q) Please indicate how the test categorized "CC1(C)C(c2ccccc2)=[N+]([O-])C(C)(C)N1O" .
A) no (0)

Q) Please indicate how the test categorized "Cc1csc(-n2nc(C)cc2C)n1" .
A) no (0)

---

test system: Hs-578T; experiment: NCI tumour cell line growth inhibition, 48 h
Calls of active or inactive are those of the source. Cut-off read from the data, not from the text of the source: active = GI50 up to about 1.1 µM and inactive = higher.
Observable: GI50

Example compounds with recorded GI50:
[[record]]
compound = "COc1cc(/C=C2\\C[C@H]3[C@@H]4CC=C5C=C(N6CCCC6)CC[C@]5(C)[C@H]4CC[C@]3(C)C2=O)cc(OC)c1OC"
observable = "GI50"
result = "2.4 µM (inactive)"

[[record]]
compound = "O=c1c(=O)c2cscc2c1=O"
observable = "GI50"
result = "9.75 µM (inactive)"

[[record]]
compound = "COc1cc2c(c(OC)c1OC)-c1cccc(=O)cc1C(NC(C)=O)CC2 (configuration not stated)"
observable = "GI50"
result = "> 100 µM (inactive)"

[[record]]
compound = "O=c1c2ccccc2nc2[nH][nH]c(=S)n12"
observable = "GI50"
result = "43.3 µM (inactive)"

[[record]]
compound = "CCN(CC)CCn1c2cc3c(cc2c(=O)c2cccnc21)OCCO3"
observable = "GI50"
result = "> 10 µM (inactive)"


Look up GI50 for the entries below, preserving their order.
1. O=C1C2=Cc3ccccc3CCN2c2ccccc21
2. CCCC(=O)OC(OC(=O)CCC)c1ccc([N+](=O)[O-])o1

A)
41 µM (inactive)
35.5 µM (inactive)

---

tested on: MOLT-4; assay: NCI tumour cell line growth inhibition, 48 h
The source made the active and inactive calls. No stated cut-off is given here; in the data, active = GI50 up to about 1.1 µM and inactive = higher.
Use one of these outcomes when replying: active, inactive

[[record]]
compound = "Cn1c2ccccc2n2c(=O)c3cccnc3c(C#N)c12"
label_value = "inactive"


Now turn to the next compound.
Q) Please indicate how the test categorized "CCCC(=O)OC(OC(=O)CCC)c1ccc([N+](=O)[O-])o1" .
A) inactive
